// data source = patent US20240247080A1

Target: human GLP-1 receptor (human, UniProt P43220 24-463)
Test: cell-based or functional assay
Starred links: 1 amine or outer side, 2 acyl side, 3 side chain; linkers in the order of their positions; H or OH if unused. Non-standard residues stand in square brackets, D forms with d. Groups on a side chain read outwards from the residue. No end group written: not given here. *: point of attachment. C20 diacid = O=C(O)CCCCCCCCCCCCCCCCCCC(=O)*; C18 diacid = O=C(O)CCCCCCCCCCCCCCCCC(=O)*; γGlu = O=C(O)[C@H](CCC(=O)[*:2])N[*:1]; εLys = N[C@@H](CCCCN[*:1])C(=O)[*:2]; AEEA = NCCOCCOCC(=O)O; Aib = CC(C)(N)C(=O)O
Measured EC50 CreLuc hGLP1R 0.5% hP of individual entries
measurement-label: EC50 CreLuc hGLP1R 0.5% hP (nM)

[[record]]
binder = "Y[Aib]EGTFTSDYSI[Aib]LEKQAQ[Aib]AFVQWLIK([εLys-γGlu-γGlu-γGlu-γGlu-γGlu-C18 diacid])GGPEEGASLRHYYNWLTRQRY-NH2 [Compound 143]"
reported_value = 0.13

[[record]]
binder = "YXEGTFTSDYSIXLEQQAQXAFVEWLIKGGPSSGASLRHYYNWLTRQRY (Aib at 2, 13, 20; K28 side chain: C20DA-gGlu-gGlu-gGlu-gGlu-Glu-gGlu-eLys; C-terminal NH2) [Compound 124]"
reported_value = 0.11

[[record]]
binder = "YXEGTFTSDYSIXLEDQAQXAFVEWLIKGGPSSGASLRHYYNWLTRQRY (Aib at 2, 13, 20; K28 side chain: C20DA-gGlu-gGlu-gGlu-gGlu-gGlu-gGlu-eLys; C-terminal NH2) [Compound 90]"
reported_value = 0.3

[[record]]
binder = "Y[Aib]EGTFTSDYSI[Aib]LEKQAQ[Aib]AFVQWLIK([AEEA-AEEA-γGlu-γGlu-Glu-γGlu-C20 diacid])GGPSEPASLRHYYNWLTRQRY-NH2 [Compound 165]"
reported_value = 0.13

[[record]]
binder = "YXEGTFTSDYSIXLEAQAQXAFVEWLIKGGPSSGASLRHYYNWLTRQRY (Aib at 2, 13, 20; K28 side chain: C20DA-gGlu-gGlu-gGlu-gGlu-gGlu-gGlu-eLys; C-terminal NH2) [Compound 102]"
reported_value = 0.33

